Data provenance is ChEMBL document CHEMBL3397032.

# TESTED_SYSTEM: Tyrosine-protein kinase JAK2 (Homo sapiens)
# Sequence (O60674 whole entry): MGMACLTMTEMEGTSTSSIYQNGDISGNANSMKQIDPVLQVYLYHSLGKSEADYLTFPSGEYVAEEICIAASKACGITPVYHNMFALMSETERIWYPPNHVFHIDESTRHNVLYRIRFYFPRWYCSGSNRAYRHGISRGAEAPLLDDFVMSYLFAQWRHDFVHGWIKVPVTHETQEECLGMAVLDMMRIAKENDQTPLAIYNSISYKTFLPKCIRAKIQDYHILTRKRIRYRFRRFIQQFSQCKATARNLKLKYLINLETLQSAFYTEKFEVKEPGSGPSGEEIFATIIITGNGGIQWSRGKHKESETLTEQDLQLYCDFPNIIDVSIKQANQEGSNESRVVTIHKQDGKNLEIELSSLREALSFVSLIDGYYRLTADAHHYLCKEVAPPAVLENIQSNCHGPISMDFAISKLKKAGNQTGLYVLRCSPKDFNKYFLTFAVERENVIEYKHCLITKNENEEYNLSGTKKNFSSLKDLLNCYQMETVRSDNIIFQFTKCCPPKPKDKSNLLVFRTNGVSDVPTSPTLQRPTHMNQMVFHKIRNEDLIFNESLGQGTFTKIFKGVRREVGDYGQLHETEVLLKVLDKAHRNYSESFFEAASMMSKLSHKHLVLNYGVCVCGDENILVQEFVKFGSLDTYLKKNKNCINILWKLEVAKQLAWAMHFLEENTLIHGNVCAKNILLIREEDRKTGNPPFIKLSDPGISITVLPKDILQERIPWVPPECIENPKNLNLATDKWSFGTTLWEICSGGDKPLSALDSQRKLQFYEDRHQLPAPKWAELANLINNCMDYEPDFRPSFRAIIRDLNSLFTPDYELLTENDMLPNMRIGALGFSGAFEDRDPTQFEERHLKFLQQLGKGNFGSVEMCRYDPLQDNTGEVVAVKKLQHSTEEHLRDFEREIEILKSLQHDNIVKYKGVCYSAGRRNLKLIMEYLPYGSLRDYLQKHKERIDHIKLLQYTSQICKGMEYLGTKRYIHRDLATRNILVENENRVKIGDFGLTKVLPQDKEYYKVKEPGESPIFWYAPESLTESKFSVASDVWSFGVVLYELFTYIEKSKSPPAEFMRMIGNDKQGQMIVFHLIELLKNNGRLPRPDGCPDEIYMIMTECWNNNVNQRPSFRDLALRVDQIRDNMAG
# PROCEDURE_SUMMARY: Inhibition of IL4-induced JAK2 autophosphorylation in human HT-29 cells by SDS-polyacrylamide gel electrophoresis and Western blot method
VALUE_KIND: IC50 (µM)

> print(dat)
                                test.smiles                             tested.system  reported.measurement
1  COc1cccc(NC(=O)c2cnc(Nc3cccc(OC)c3)c([N+](=O)[O-])c2)c1  Tyrosine-protein kinase JAK2 (Homo sapiens)                   8.5
2  COc1cccc(NC(=O)c2cnc(N3CCN(c4ccccc4OC)CC3)c([N+](=O)[O-])c2)c1  Tyrosine-protein kinase JAK2 (Homo sapiens)                   9.5
3  Cc1ccccc1S(=O)(=O)Nc1cnc(N2CCCCC2)c(C(=O)O)c1  Tyrosine-protein kinase JAK2 (Homo sapiens)                   6.9
